test system: MCF7; experiment: NCI tumour cell line growth inhibition, 48 h
Activity calls are given as the source filed them. No stated cut-off is given here; in the data, active = GI50 up to about 1.1 µM and inactive = higher.
Catalogue of compounds with associated GI50

// solved cases for GI50 follow
Compound structure	GI50
Nc1nc(-c2cccc([N+](=O)[O-])c2)cc(-c2cc(-c3cccc([N+](=O)[O-])c3)nc(N)n2)n1	> 100 µM (inactive)
CCOC(=O)C(=O)NNc1nc2c(s1)C(=O)c1ccccc1C2=O	15.6 µM (inactive)
FC(F)(F)c1ccc2c(-c3cc[nH]c3)ccnc2c1	30.8 µM (inactive)
CS(=O)(=O)OCCN1CCC2(CC1)SSC1(CCN(CCOS(C)(=O)=O)CC1)S2	17.1 µM (inactive)

The reported GI50 of the compound `O=C(O)C/C(=C\c1ccco1)C(=O)O` was > 100 µM (inactive)
